Test system: PPARg:RXRa 270nM:90nM, anti-RXR (NR concentration 270 nM, RXRa partner concentration 90 nM)
assay_procedure: PBM binding z-score (relative to random genomic background probes); higher = stronger binding; sequences stand for … in GC…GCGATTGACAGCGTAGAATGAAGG
PBM binding z-score by entry:
// return just the number, without any unit appended

>  <residue_codes>
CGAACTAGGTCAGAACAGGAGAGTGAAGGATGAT

>  <PBM binding z-score>
4.6

$$$$
>  <residue_codes>
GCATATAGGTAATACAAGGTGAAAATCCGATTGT

>  <PBM binding z-score>
1.09

$$$$
>  <residue_codes>
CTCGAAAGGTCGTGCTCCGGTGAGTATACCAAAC

>  <PBM binding z-score>
4.07

$$$$
>  <residue_codes>
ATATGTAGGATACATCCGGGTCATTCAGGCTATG

>  <PBM binding z-score>
1.77

$$$$
>  <residue_codes>
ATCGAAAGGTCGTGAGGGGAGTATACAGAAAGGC

>  <PBM binding z-score>
4.21

$$$$
>  <residue_codes>
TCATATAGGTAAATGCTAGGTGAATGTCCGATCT

>  <PBM binding z-score>
2.17

$$$$
>  <residue_codes>
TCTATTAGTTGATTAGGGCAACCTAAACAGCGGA

>  <PBM binding z-score>
1.95

$$$$
>  <residue_codes>
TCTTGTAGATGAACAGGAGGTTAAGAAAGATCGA

>  <PBM binding z-score>
1.32

$$$$

input: Any idea what its PBM binding z-score is? The sequence is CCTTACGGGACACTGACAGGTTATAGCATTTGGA
output: -0.397

input: Return reported PBM binding z-score; argument: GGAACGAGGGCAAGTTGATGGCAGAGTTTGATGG
output: 0.903

input: Any idea what its PBM binding z-score is? The sequence is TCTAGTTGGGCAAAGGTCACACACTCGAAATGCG
output: 9.73

input: Entry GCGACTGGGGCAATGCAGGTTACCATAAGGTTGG : reported PBM binding z-score = ?
output: 1.26

input: Fill in: PBM binding z-score of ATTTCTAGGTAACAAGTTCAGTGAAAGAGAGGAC is ___
output: 3.44

input: Item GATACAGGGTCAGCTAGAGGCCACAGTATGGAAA has what recorded PBM binding z-score?
output: 3.58

---

# maps each entry to its PBM binding z-score
System: PPARg:RXRa DBDmut IVT, anti-RXR (DBD mutation: RXRa K156A/R161A, NR concentration 270 nM, RXRa partner concentration 90 nM)
assay_procedure: PBM binding z-score (relative to random genomic background probes); higher = stronger binding; sequences stand for … in GC…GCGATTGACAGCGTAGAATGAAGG
Write no unit; give the number alone.

Solved entries:
>  <residue_codes>
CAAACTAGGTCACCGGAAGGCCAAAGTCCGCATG

>  <assay_value>
8.65

$$$$
>  <residue_codes>
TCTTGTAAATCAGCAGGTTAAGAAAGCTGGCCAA

>  <assay_value>
1.8

$$$$

Could you now look at the following sequence, please?
input: Report PBM binding z-score for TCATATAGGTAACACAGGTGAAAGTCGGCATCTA please.
output: 4.65

---

Test system: PXR homodimer (NR concentration 270 nM)
assay_procedure: PBM binding z-score (relative to random genomic background probes); higher = stronger binding; sequences stand for … in GC…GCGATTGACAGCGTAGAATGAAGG
Form field: PBM binding z-score (one value per entry).
# print the numeric value only

Here are 4 sequences together with their reported answers.
>  <residue_codes>
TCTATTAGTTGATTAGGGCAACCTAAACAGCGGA

>  <PBM binding z-score>
-0.0681

$$$$
>  <residue_codes>
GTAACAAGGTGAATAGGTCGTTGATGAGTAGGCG

>  <PBM binding z-score>
0.451

$$$$
>  <residue_codes>
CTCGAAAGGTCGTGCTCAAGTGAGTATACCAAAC

>  <PBM binding z-score>
0.371

$$$$
>  <residue_codes>
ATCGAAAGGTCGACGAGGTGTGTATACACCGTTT

>  <PBM binding z-score>
-0.171

$$$$

Moving on to the next sequence.
input: Look up PBM binding z-score for this sequence: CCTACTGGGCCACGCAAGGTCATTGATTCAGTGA
output: 1.84

---

Tested on: THRa:RXRa (NR concentration 90 nM, RXRa partner concentration 90 nM)
assay_procedure: PBM binding z-score (relative to random genomic background probes); higher = stronger binding; sequences stand for … in GC…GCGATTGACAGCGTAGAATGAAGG
observable: PBM binding z-score

Recorded PBM binding z-score, per entry:
>  <residue_codes>
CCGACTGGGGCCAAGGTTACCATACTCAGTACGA

>  <observable>
PBM binding z-score

>  <assay_value>
1.88

$$$$
>  <residue_codes>
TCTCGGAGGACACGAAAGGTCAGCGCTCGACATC

>  <observable>
PBM binding z-score

>  <assay_value>
3.89

$$$$
>  <residue_codes>
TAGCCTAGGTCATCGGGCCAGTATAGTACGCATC

>  <observable>
PBM binding z-score

>  <assay_value>
2.96

$$$$
>  <residue_codes>
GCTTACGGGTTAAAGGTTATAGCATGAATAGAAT

>  <observable>
PBM binding z-score

>  <assay_value>
2.8

$$$$
>  <residue_codes>
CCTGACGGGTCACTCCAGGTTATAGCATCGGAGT

>  <observable>
PBM binding z-score

>  <assay_value>
5.04

$$$$

As a next step, examine the sequence that follows.
input: Bench note: what PBM binding z-score did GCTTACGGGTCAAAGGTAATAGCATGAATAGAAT show?
output: 3.07

---

Recorded PBM binding z-score by entry
Test system: PPARg:RXRa 30nM:10nM, anti-RXR (NR concentration 30 nM, RXRa partner concentration 10 nM)
assay_procedure: PBM binding z-score (relative to random genomic background probes); higher = stronger binding; sequences stand for … in GC…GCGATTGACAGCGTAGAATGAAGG
Please give only the number in your answer, with no unit.

Answered examples (2):
>  <residue_codes>
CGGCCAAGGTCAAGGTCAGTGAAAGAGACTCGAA

>  <measured_on>
PPARg:RXRa 30nM:10nM, anti-RXR (NR concentration 30 nM, RXRa partner concentration 10 nM)

>  <PBM binding z-score>
2.33

$$$$
>  <residue_codes>
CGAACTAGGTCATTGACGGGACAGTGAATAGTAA

>  <measured_on>
PPARg:RXRa 30nM:10nM, anti-RXR (NR concentration 30 nM, RXRa partner concentration 10 nM)

>  <PBM binding z-score>
3.39

$$$$

input: Recorded PBM binding z-score for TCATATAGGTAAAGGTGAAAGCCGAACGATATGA with PPARg:RXRa 30nM:10nM, anti-RXR (NR concentration 30 nM, RXRa partner concentration 10 nM), please?
output: 4.34

input: Hello, I am looking for reported PBM binding z-score with PPARg:RXRa 30nM:10nM, anti-RXR (NR concentration 30 nM, RXRa partner concentration 10 nM) for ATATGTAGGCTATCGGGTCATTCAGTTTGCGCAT . Could you help?
output: 1.92

---

Tested on: PPARg:RXRa 90nM:30nM, anti-RXR (NR concentration 90 nM, RXRa partner concentration 30 nM)
assay_procedure: PBM binding z-score (relative to random genomic background probes); higher = stronger binding; sequences stand for … in GC…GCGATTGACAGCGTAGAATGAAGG
Label y when PBM binding z-score is at or above 0.08; anything below gets n.

>  <residue_codes>
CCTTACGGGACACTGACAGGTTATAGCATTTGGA

>  <class>
n

$$$$
>  <residue_codes>
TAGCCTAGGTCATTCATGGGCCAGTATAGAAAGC

>  <class>
y

$$$$
>  <residue_codes>
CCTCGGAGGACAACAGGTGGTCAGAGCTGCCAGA

>  <class>
n

$$$$

input: Check this sequence for PBM binding z-score at or above 0.08: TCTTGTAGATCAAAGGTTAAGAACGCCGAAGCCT
output: y

---

Quick reference: PBM binding z-score of the listed items.
System: PPARg:RXRa IVT, anti-PPARg (NR concentration 270 nM, RXRa partner concentration 90 nM)
assay_procedure: PBM binding z-score (relative to random genomic background probes); higher = stronger binding; sequences stand for … in GC…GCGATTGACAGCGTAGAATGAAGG
When you answer, write just the number.

Here's what some known entries look like.
>  <residue_codes>
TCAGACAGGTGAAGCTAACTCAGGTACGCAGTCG

>  <PBM binding z-score>
0.713

$$$$
>  <residue_codes>
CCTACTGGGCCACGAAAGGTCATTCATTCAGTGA

>  <PBM binding z-score>
5.87

$$$$
>  <residue_codes>
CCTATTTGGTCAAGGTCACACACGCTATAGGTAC

>  <PBM binding z-score>
3.67

$$$$
>  <residue_codes>
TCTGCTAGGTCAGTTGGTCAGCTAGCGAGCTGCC

>  <PBM binding z-score>
3.15

$$$$
>  <residue_codes>
TGAATGAGGTTATAAGATCAGGTAACGTTGCAAA

>  <PBM binding z-score>
1.74

$$$$
>  <residue_codes>
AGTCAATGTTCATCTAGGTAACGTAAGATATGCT

>  <PBM binding z-score>
1.85

$$$$

input: Returns the measured PBM binding z-score for the input sequence. Input: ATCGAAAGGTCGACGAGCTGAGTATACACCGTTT
output: 1.18

input: Would you kindly share the measured PBM binding z-score for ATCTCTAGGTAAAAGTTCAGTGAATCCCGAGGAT ?
output: 3.82

input: Entry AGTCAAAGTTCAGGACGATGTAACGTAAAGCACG has what PBM binding z-score?
output: 1.19

input: What value of PBM binding z-score has been recorded for this entry: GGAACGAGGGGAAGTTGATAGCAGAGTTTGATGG
output: 0.62

input: Need PBM binding z-score, item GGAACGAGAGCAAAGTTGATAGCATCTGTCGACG
output: 0.909

input: GET /values?readout=PBM binding z-score&item= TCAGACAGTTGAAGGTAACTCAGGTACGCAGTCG
output: 0.0381

input: Reported PBM binding z-score for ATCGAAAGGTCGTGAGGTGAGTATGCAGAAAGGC : what is it?
output: 2.19
